Target under test: recombinant human Meningioma Expressed Antigen 5 (MGEA5), also referred to as O-GlcNAcase (OGA) (Homo sapiens, UniProt O60502)
Construct: Full length OGA enzyme was purchased at OnGene (cat #TP322411); purchased OnGene (so in the source)
Sequence (O60502 1-916): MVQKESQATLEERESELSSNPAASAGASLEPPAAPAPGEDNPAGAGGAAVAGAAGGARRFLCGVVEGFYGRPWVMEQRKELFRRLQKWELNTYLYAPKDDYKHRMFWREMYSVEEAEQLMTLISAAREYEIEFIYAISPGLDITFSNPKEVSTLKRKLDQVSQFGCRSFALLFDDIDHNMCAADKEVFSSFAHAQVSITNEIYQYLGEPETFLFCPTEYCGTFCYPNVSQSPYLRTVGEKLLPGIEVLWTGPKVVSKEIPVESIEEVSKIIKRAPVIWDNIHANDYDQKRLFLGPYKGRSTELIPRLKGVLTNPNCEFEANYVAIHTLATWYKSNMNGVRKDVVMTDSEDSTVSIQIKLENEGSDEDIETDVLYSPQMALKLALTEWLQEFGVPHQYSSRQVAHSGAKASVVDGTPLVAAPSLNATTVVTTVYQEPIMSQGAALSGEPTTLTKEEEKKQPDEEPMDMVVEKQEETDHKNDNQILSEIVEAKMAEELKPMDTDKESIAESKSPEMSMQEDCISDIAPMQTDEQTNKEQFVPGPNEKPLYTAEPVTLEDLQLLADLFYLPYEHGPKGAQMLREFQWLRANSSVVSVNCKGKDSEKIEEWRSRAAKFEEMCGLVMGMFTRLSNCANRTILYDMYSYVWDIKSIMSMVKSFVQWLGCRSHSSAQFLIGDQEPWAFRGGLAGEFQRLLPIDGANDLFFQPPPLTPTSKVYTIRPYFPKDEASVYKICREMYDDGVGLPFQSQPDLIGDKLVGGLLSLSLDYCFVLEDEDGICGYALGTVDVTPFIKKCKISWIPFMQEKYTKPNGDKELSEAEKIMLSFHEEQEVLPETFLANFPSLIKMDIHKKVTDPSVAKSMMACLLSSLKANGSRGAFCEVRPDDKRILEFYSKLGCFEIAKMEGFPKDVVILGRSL
Assay procedure: OGA biochemical assay: inhibition of hydrolysis of fluorescein mono-ß-D-N-Acetyl-Glucosamine (FM-GlcNAc), fluorescence readout
Measurement conditions: FM-GlcNAc substrate, read-out: Enzymatic Emax (%)
Readout: Emax (%)

{"Molecule": "CCCCn1ccc2c(Nc3c(Cl)cnc4c3OCCO4)nccc21 [Compound 18]", "Readout": "Emax", "Result": 102}
{"Molecule": "CN(C)S(=O)(=O)Cn1ccc2c(Nc3c(Cl)cncc3Cl)nccc21 [Compound 3]", "Readout": "Emax", "Result": 92}
{"Molecule": "Cc1ccnc(C(C)C)c1Nc1nccc2c1ccn2CC1CCOC1 (centres unmarked) [Compound 141]", "Readout": "Emax", "Result": 103}
{"Molecule": "CCC(Cn1ccc2c(Nc3c(Cl)cc(F)cc3Cl)nccc21)OC (centres unmarked) [Compound 104]", "Readout": "Emax", "Result": 96.9}
{"Molecule": "Cc1cc(F)cc(C(C)C)c1Nc1nccc2c1ccn2CC1CC(F)(F)C1 [Compound 171]", "Readout": "Emax", "Result": 103}
{"Molecule": "Cc1cc(Cn2ccc3c(Nc4c(C)ccnc4C)nccc32)no1 [Compound 133]", "Readout": "Emax", "Result": 101}
{"Molecule": "FC(F)CCn1ccc2c(Nc3c(Cl)cccc3Cl)nccc21 [Compound 97]", "Readout": "Emax", "Result": 101}
{"Molecule": "CCCCn1ccc2c(Nc3c(C)cnnc3C)nccc21 [Compound 17]", "Readout": "Emax", "Result": 102}
{"Molecule": "Cc1cc(OC(F)(F)F)cc(C)c1Nc1nccc2c1ccn2CC(F)(F)C(C)C [Compound 187]", "Readout": "Emax", "Result": 101}
{"Molecule": "CCCCn1ccc2c(Nc3c(F)cncc3C(C)C)nccc21 [Compound 46]", "Readout": "Emax", "Result": 99}
{"Molecule": "CCCCn1ccc2c(Nc3c(C)cc4c(c3C)CC(=O)N(C)C4)nccc21 [Compound 88]", "Readout": "Emax", "Result": 103}
{"Molecule": "CCCCn1ccc2c(Nc3c(F)cncc3CC)nccc21 [Compound 44]", "Readout": "Emax", "Result": 100}
{"Molecule": "CCCCn1c(F)cc2c(Nc3c(C)cncc3C)nccc21 [Compound 31]", "Readout": "Emax", "Result": 99}
{"Molecule": "Cc1cncc(C)c1Nc1nccc2c1ccn2CCC1CC1 [Compound 49]", "Readout": "Emax", "Result": 103}
{"Molecule": "Cc1cncc(Cl)c1Nc1nccc2c1ccn2CCC1CC1 [Compound 65]", "Readout": "Emax", "Result": 104}
{"Molecule": "Cc1cncc(C(C)(C)O)c1Nc1nccc2c1ccn2CC1CCO1 (centres unmarked) [Compound 125]", "Readout": "Emax", "Result": 103}
{"Molecule": "CCCCn1ccc2c(Nc3c(Cl)ccc4c3OCCO4)nccc21 [Compound 51]", "Readout": "Emax", "Result": 102}
{"Molecule": "Fc1cnc(-n2ccc3c(Nc4c(Cl)cccc4Cl)nccc32)nc1 [Compound 164]", "Readout": "Emax", "Result": 101}
{"Molecule": "Cc1cc(F)cc(C)c1Nc1nccc2c1ccn2CC1CC(F)(F)C1 [Compound 170]", "Readout": "Emax", "Result": 100}
{"Molecule": "Cc1cncc(C)c1Nc1nccc2c1ccn2CC1CC1 [Compound 41]", "Readout": "Emax", "Result": 101}

====

Target under test: recombinant human Meningioma Expressed Antigen 5 (MGEA5), also referred to as O-GlcNAcase (OGA) (Homo sapiens)
Construct: Full length OGA enzyme was purchased at OnGene (cat #TP322411); purchased OnGene (so in the source)
Assay procedure: OGA biochemical assay: inhibition of hydrolysis of fluorescein mono-ß-D-N-Acetyl-Glucosamine (FM-GlcNAc), fluorescence readout
Measurement conditions: FM-GlcNAc substrate, read-out: Enzymatic hOGA, pIC50 (converted)
Readout: IC50 (nM)

Answered cases to consult:
{"Compound": "CCCCn1ccc2c(Nc3c(C)cccc3C)nccc21", "Reading unit": "nM", "IC50": 5.62}
{"Compound": "Cc1cccc(S(C)(=O)=O)c1Nc1nccc2c1ccn2CCC1CC1", "Reading unit": "nM", "IC50": 1.35}
{"Compound": "Cc1ccnc(C)c1Nc1nccc2c1ccn2CCC1COC1", "Reading unit": "nM", "IC50": 115}
{"Compound": "FC(F)(F)CCn1ccc2c(Nc3c(Cl)cccc3Cl)nccc21", "Reading unit": "nM", "IC50": 23.4}

a = CCCCn1ccc2c(Nc3c(C)cc(C(=O)N4CCCC4)cc3C)nccc21
b = Cc1cncc(C)c1Nc1nccc2c1ccn2CCC(C)C
// query Of a and b , which one carries the higher reported IC50? Lab log: write the label of the selected item as the result.
// result b
(b: 10.7 nM, a: 2.82 nM)

1 = N#Cc1cnc(-n2ccc3c(Nc4c(Cl)cc(F)cc4Cl)nccc32)[nH]1
2 = CCCCn1ccc2c(Nc3c(C)ccc(C(=O)NC)c3C)nccc21
3 = Cc1ccnc(C)c1Nc1nccc2c1ccn2CC1CCO1 (stereo not shown) [Compound 25]
4 = N#CCCCn1ccc2c(Nc3c(Cl)cncc3Cl)nccc21
5 = CCCCn1ccc2c(Nc3c(C)cncc3C)nccc21
// query Form: Sort by [IC50] Order [ ascending ] // rank by listing labels in the order requested
// result 2, 3, 5, 4, 1
(2: 3.09 nM, 3: 4.79 nM, 5: 9.55 nM, 4: 275 nM, 1: 794 nM)

P = CCCCn1ccc2c(Nc3c(C)cc4c(c3C)CC(=O)N(C)C4)nccc21
Q = Clc1cccc(Cl)c1Nc1nccc2c1ccn2Cc1ncc[nH]1
// query Field: lower recorded IC50 (choose P or Q ) Lab log: write the label of the selected item as the result.
// result P

A = Cc1ccnc(C)c1Nc1nccc2c1ccn2CC1CCO1 (single isomer, unassigned) [Compound 25a]
B = Cc1cncc(C)c1Nc1nccc2c1ccn2CC1CC1
// query Field: lower recorded IC50 (choose A or B ) Lab log: write the label of the selected item as the result.
// result A

a = CCCCn1ccc2c(Nc3c(C)cc4c(c3C)C(=O)N(C)C4)nccc21
b = CCCCn1ccc2c(Nc3c(C)cc4c(ncn4C)c3C)nccc21
// query Of a and b , which one carries the higher reported IC50? Lab log: write the label of the selected item as the result.
// result a
(a: 10.5 nM, b: 4.79 nM)

I = Cc1ncnc(C(C)C)c1Nc1nccc2c1ccn2CCC1CC1
II = CCCCn1ccc2c(Nc3c(C)ccnc3C)ncc(F)c21
// query Of I and II , which one carries the higher reported IC50? Lab log: write the label of the selected item as the result.
// result II

====

Target under test: recombinant human Meningioma Expressed Antigen 5 (MGEA5), also referred to as O-GlcNAcase (OGA) (Homo sapiens)
Construct: Full length OGA enzyme was purchased at OnGene (cat #TP322411); purchased OnGene (so in the source)
Assay procedure: OGA biochemical assay: inhibition of hydrolysis of fluorescein mono-ß-D-N-Acetyl-Glucosamine (FM-GlcNAc), fluorescence readout
Measurement conditions: FM-GlcNAc substrate, read-out: Enzymatic Emax (%)
Readout: Emax (%)

{"Compound": "CCCC(C)n1ccc2c(Nc3c(C)cncc3C)nccc21 (centres unmarked) [Compound 33]", "Result": 99}
{"Compound": "Cc1ccnc(C)c1Nc1nccc2c1ccn2CC(C)(C)C#N [Compound 84]", "Result": 86}
{"Compound": "CCCCn1ccc2c(Nc3c(C)cc(C(=O)N(C)C)cc3C)nccc21 [Compound 61]", "Result": 103}
{"Compound": "Cc1cncc(C(F)(F)F)c1Nc1nccc2c1ccn2CCC1CC1 [Compound 194]", "Result": 104}
{"Compound": "CCCCn1ccc2c(Nc3c(C)cccc3C(C)C)nccc21 [Compound 67]", "Result": 104}
